The reported numbers originate from patent EP3807270B1.

- TEST PROTOCOL: Human microsome stability assay
- Assay type: in vitro ADME
- CONDITION DESCRIPTION: 1 µM test compound, 0.5 mg/mL liver microsomal protein, 37 °C
ENDPOINT NAME: Clearance of Human microsome (mL/min/kg)

INSERT INTO assay_data (compound, endpoint_name, output_unit, obs_value) VALUES
  ('CC1NCc2cc(N3CCN(C[C@H]4CN(c5ccc(C#N)c6ncccc56)C[C@@H](C)O4)CC3)ccc21 (stereo partly drawn) [Example 28]', 'Clearance of Human microsome', 'mL/min/kg', 6.15),
  ('C[C@@H]1CN(c2ccc(C#N)c3ncccc23)C[C@H](CN2CCN(c3ccc4c(n3)CN[C@H]4C)CC2)O1 (single isomer, unassigned) [Example 63]', 'Clearance of Human microsome', 'mL/min/kg', 6.15),
  ('[2H]c1nc2c(C#N)ccc(N3C[C@H](CN4CCN(c5ccc6c(n5)CN[C@H]6C)CC4)O[C@H](C)C3)c2nc1[2H] (single isomer, unassigned) [Example 96]', 'Clearance of Human microsome', 'mL/min/kg', 6.23),
  ('C[C@@H]1CN(c2ccc(C#N)c3ncccc23)C[C@H](CN2CCN(c3ccc4c(c3)CNCC4)CC2)O1 [Example 9]', 'Clearance of Human microsome', 'mL/min/kg', 6.74),
  ('C[C@@H]1CN(c2cc(=O)n(C)c3ncccc23)C[C@H](CN2CCN(c3cc4c(cn3)CCNC4)CC2)O1 [Example 103]', 'Clearance of Human microsome', 'mL/min/kg', 6.15),
  ('C[C@@H]1CN(c2ccc(C#N)c3nccnc23)C[C@H](CN2CCN(c3cc4c(cn3)CCN[C@@H]4C)CC2)O1 (single isomer, unassigned) [Example 87]', 'Clearance of Human microsome', 'mL/min/kg', 8.91);
